- SYSTEM UNDER TEST: Ba/F3 EGFR-Del19/C797S (Homo sapiens, UniProt P00533, C797S, cells depend on it, form not given)
- Sequence (P00533 with tags, fused parts or gaps DEL746-750/C797S, form open): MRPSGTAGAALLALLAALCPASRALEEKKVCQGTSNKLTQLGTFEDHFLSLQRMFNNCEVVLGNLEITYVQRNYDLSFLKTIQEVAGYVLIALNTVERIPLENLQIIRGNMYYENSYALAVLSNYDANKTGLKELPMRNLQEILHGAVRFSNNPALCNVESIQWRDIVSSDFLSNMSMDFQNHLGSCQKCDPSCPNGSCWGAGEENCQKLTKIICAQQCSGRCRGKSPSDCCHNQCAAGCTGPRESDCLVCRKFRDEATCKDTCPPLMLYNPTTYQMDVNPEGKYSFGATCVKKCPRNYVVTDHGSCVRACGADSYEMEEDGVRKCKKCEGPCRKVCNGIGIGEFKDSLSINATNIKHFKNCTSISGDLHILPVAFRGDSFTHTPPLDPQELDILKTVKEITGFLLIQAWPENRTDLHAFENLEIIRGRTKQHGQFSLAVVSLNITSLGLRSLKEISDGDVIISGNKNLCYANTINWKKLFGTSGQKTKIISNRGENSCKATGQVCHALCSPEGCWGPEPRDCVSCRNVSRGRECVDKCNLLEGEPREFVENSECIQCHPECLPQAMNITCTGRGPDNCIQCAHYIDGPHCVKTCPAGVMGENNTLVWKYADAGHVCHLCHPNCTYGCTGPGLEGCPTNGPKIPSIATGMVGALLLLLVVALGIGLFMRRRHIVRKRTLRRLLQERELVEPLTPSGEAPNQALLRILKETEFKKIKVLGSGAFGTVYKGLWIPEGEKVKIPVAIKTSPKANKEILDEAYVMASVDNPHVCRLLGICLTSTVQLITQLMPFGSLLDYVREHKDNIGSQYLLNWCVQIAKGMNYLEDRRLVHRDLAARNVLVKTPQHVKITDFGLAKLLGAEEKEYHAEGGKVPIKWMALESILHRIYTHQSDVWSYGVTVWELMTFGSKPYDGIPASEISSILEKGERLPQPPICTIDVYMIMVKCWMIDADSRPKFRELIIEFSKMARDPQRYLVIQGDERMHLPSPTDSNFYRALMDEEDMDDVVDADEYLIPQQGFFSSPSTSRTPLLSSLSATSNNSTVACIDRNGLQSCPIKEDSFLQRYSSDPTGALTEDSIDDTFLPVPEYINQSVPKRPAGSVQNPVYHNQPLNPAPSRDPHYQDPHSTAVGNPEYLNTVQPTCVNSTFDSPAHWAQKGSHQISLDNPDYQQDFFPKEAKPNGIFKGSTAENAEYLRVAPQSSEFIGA
- PROTOCOL DETAILS: Ba/F3 viability assay (CellTiter-Glo), BAF3 DC
- Format: cell-based
- TEST SETTINGS: Ba/F3 EGFR-Del19/C797S cell viability
Entries and their measured GI50 follow.

Worked cases, GI50 given:
>>> meas_value("Cc1cc2cc(n1)-c1cnn(C)c1CCCCCN1/C(=N/C2=O)Nc2ccc(CN3CCNCC3)cc21 [(46)]")
"< 50 nM"
>>> meas_value("Cc1cc2cc(n1)-c1cnn(C)c1CCC[C@@H](C)CN1/C(=N/C2=O)Nc2ccc(CN3CCN(C)CC3)cc21 [(35)]")
"< 50 nM"
>>> meas_value("Cc1cc2cc(n1)-c1cnn(C)c1CCC[C@@H](C)CN1/C(=N/C2=O)Nc2ccc(OC3CCNCC3)cc21 [(15)]")
"< 50 nM"

# GI50 lookup, item Cc1ccc(-c2ccc3c(c2)N2C[C@H](C)CCCc4c(cnn4C)-c4cc(cc(C)n4)C(=O)/N=C/2N3)cn1 [Compound (10)]
< 50 nM

# GI50 lookup, item Cc1cc2cc(n1)-c1cnn(C)c1CCC[C@@H](C)CN1/C(=N/C2=O)Nc2ccc(N3CCC(N4CC[C@H](N(C)C)C4)CC3)cc21 [(4)]
< 50 nM

# GI50 lookup, item Cc1cc2cc(n1)-c1cnn(C)c1CCC[C@@H](C)CN1/C(=N/C2=O)Nc2c(C)cc(N3CCN(C)CC3)cc21 [(2)]
50 to 100 nM

# GI50 lookup, item Cc1cc2cc(n1)-c1cnn(C)c1-c1cccc(c1)C(C)CN1/C(=N/C2=O)Nc2ccc(C(=O)N3CCN(C)CC3)cc21 (stereo not drawn) [(57)]
100 to 1000 nM

# GI50 lookup, item Cc1cc2cc(n1)-c1cnn(C)c1-c1cccc(c1)CN1/C(=N/C2=O)Nc2ccc(CN3CCN(C)CC3)cc21 [(61)]
100 to 1000 nM

# GI50 lookup, item Cc1cc2cc(n1)-c1cnn(C)c1CCC[C@@H](C)CN1/C(=N/C2=O)Nc2ccc(N(CCN(C)C)CC3COC3)cc21 [(18)]
100 to 1000 nM

# GI50 lookup, item Cc1cc2cc(n1)-c1cnn(C)c1CCC[C@@H](C)CN1/C(=N/C2=O)Nc2ccc(N3CCN(C(C)C)CC3)cc21 [(28)]
< 50 nM

# GI50 lookup, item COc1cc(N2CCN(C)CC2)cc2c1N/C1=N\C(=O)c3cc(C)nc(c3)-c3cnn(C)c3CCC[C@@H](C)CN12 [(3)]
100 to 1000 nM

# GI50 lookup, item Cc1cc2cc(n1)-c1cnn(C)c1CCCO[C@@H](C)CN1/C(=N/C2=O)Nc2ccc(CN3CCN(C)CC3)cc21 [Compound (55)]
100 to 1000 nM

# GI50 lookup, item Cc1cc2cc(n1)-c1cnn(C)c1CCCCCCN1/C(=N/C2=O)Nc2ccc(CN3CCOCC3)cc21 [(62)]
50 to 100 nM

# GI50 lookup, item Cc1cc2cc(n1)-c1cnn(C)c1CCCCCCN1/C(=N/C2=O)Nc2ccc(CN3CCN(C)CC3)cc21 [(64)]
50 to 100 nM

# GI50 lookup, item COc1ccncc1-c1ccc2c(c1)N1C[C@H](C)CCCc3c(cnn3C)-c3cc(cc(C)n3)C(=O)/N=C/1N2 [(9)]
< 50 nM
